system: Hepatitis B virus; experiment: Antiviral activity against Hepatitis B virus in human HepA2 cells assessed as reduction of HBeAg secretion after 48 hrs by ELISA; assay type: functional, organism-based; settings: HepA2, 48 h
parameter: EC50 (nM)
Give the value in nM but do not write nM after it.

Please look at "COc1ccc(-c2c3c(cc4ccc5c(c24)OCO5)C(=O)OC3)cc1O" and tell me its recorded EC50 on Hepatitis B virus. 140

* * *

assay: Cytotoxicity against human HepA2 cells after 48 hrs by MTT assay; format: cell-based
Consider the following compounds and their measured CC50 at 48 h readings.
Give the value in µM but do not write µM after it.

Examples from the recorded data:
INSERT INTO results (smiles_structure, measured_value) VALUES
  ('COc1ccc(-c2c3c(cc4ccc5c(c24)OCO5)C(=O)OC3)cc1O', 10.1),
  ('COC(=O)c1c(C(=O)OC)c(-c2ccc3c(c2)OCO3)c2c3c(ccc2c1O)OCO3', 7.04);

Quick one: give measured CC50 at 48 h for "O=C1OC(=O)c2c1cc1ccc3c(c1c2-c1ccc2c(c1)OCO2)OCO3" 11.8

* * *

assay: Cytotoxicity against human HepA2 cells after 48 hrs by MTT assay; format: cell-based
Consider the following compounds and their measured CC50 at 48 h readings.

Examples from the recorded data:
INSERT INTO results (smiles_structure, measured_value) VALUES
  ('COc1ccc(-c2c3c(cc4ccc5c(c24)OCO5)COC3=O)cc1OCc1ccccc1', '> 12.5 µM'),
  ('O=C1OCc2cc3ccc4c(c3c(-c3ccc5c(c3)OCO5)c21)OCO4', '> 12.5 µM'),
  ('OCc1cc2ccc3c(c2c(-c2ccc4c(c2)OCO4)c1CO)OCO3', '> 12.5 µM'),
  ('COc1cc(-c2c3c(cc4ccc5c(c24)OCO5)C(=O)OC3)ccc1OCc1ccccc1', '> 12.5 µM'),
  ('COc1cc(-c2c3c(cc4ccc5c(c24)OCO5)C(=O)OC3=O)ccc1OCc1ccccc1', '11.7 µM'),
  ('O=C1OCc2cc3ccc4c(c3c(-c3ccc(OCc5ccccc5)c(OCc5ccccc5)c3)c21)OCO4', '> 12.5 µM');

Quick one: give measured CC50 at 48 h for "O=C1OCc2c1cc1ccc3c(c1c2-c1ccc(OC(F)(F)F)cc1)OCO3" > 12.5 µM

Quick one: give measured CC50 at 48 h for "O=Cc1cc2ccc3c(c2c(-c2ccc4c(c2)OCO4)c1C=O)OCO3" 5.31 µM

Quick one: give measured CC50 at 48 h for "CCOC(=O)c1cc2ccc3c(c2c(-c2ccc4c(c2)OCO4)c1C(=O)OCC)OCO3" > 12.5 µM

* * *

experiment: Cytotoxicity against human HepA2 cells after 48 hrs by MTT assay; type: cell-based
parameter: CC50 at 48 h (µM)
Give the value in µM but do not write µM after it.

Examples from the recorded data:
INSERT INTO assay_data (smiles_structure, parameter, measured_value) VALUES
  ('O=C1OCc2c1cc1ccc3c(c1c2-c1ccc2c(c1)OCO2)OCO3', 'CC50 at 48 h', 11.3),
  ('COC(=O)c1c(C(=O)O)c(OC)c2ccc3c(c2c1-c1ccc2c(c1)OCO2)OCO3', 'CC50 at 48 h', 7.87),
  ('O=C1OCc2c1cc1ccc3c(c1c2-c1ccc(O)c(O)c1)OCO3', 'CC50 at 48 h', 7.01);

Quick one: give measured CC50 at 48 h for "COC(=O)c1c(C(=O)O)c(O)c2ccc3c(c2c1-c1ccc2c(c1)OCO2)OCO3" 7.01

Quick one: give measured CC50 at 48 h for "O=C1OCc2c1cc1c(Br)cc3c(c1c2-c1ccc2c(c1)OCO2)OCO3" 6.33

* * *

assay: Cytotoxicity against human HepA2 cells after 48 hrs by MTT assay; format: cell-based
Consider the following compounds and their measured CC50 at 48 h readings.

Examples from the recorded data:
INSERT INTO results (smiles_structure, measured_value) VALUES
  ('COc1ccc(-c2c3c(cc4ccc5c(c24)OCO5)C(=O)OC3=O)cc1OCc1ccccc1', '> 12.5 µM'),
  ('O=C1OCc2c1cc1c(Br)cc3c(c1c2-c1cc2c(cc1Br)OCO2)OCO3', '> 12.5 µM'),
  ('CC(=O)OCCN1C(=O)c2cc3ccc4c(c3c(-c3ccc5c(c3)OCO5)c2C1=O)OCO4', '> 12.5 µM'),
  ('CC(=O)OCc1cc2ccc3c(c2c(-c2ccc4c(c2)OCO4)c1CO)OCO3', '> 12.5 µM'),
  ('COc1ccc(-c2c3c(cc4ccc5c(c24)OCO5)C(=O)OC3)cc1OCc1ccccc1', '> 12.5 µM'),
  ('N#Cc1cc2c(c3c(-c4ccc5c(c4)OCO5)c4c(cc13)C(=O)OC4)OCO2', '> 12.5 µM'),
  ('N#Cc1cc2c(c3c(-c4cc5c(cc4Br)OCO5)c4c(cc13)C(=O)OC4)OCO2', '> 12.5 µM'),
  ('CC(=O)OCc1cc2ccc3c(c2c(-c2ccc4c(c2)OCO4)c1C=O)OCO3', '4.69 µM');

Quick one: give measured CC50 at 48 h for "COc1ccc(-c2c3c(cc4ccc5c(c24)OCO5)C(=O)OC3)cc1OC" 5.86 µM

Quick one: give measured CC50 at 48 h for "O=C1OCc2c1cc1ccc3c(c1c2-c1ccc(OCc2ccccc2)c(OCc2ccccc2)c1)OCO3" > 12.5 µM

Quick one: give measured CC50 at 48 h for "COc1cc(-c2c3c(cc4ccc5c(c24)OCO5)C(=O)OC3)ccc1O" > 12.5 µM

Quick one: give measured CC50 at 48 h for "COC(=O)c1c(C(=O)OC)c(-c2ccc3c(c2)OCO3)c2c3c(ccc2c1OC)OCO3" 8.93 µM

Quick one: give measured CC50 at 48 h for "CC(=O)OCc1cc2ccc3c(c2c(-c2ccc4c(c2)OCO4)c1COC(C)=O)OCO3" 6.91 µM

* * *

test: Cytotoxicity against human HepA2 cells after 48 hrs by MTT assay; format: cell-based
parameter: CC50 at 48 h

Examples from the recorded data:
INSERT INTO assay_data (smiles_structure, parameter, measured_value) VALUES
  ('O=C1C=Cc2cc3c(c(-c4ccc5c(c4)OCO5)c2C1=O)COC3=O', 'CC50 at 48 h', '7.49 µM'),
  ('O=C1c2cc3ccc4c(c3c(-c3ccc5c(c3)OCO5)c2C(=O)N1CCO)OCO4', 'CC50 at 48 h', '> 12.5 µM'),
  ('O=C1OC(=O)c2c1cc1ccc3c(c1c2-c1ccc(OCc2ccccc2)c(OCc2ccccc2)c1)OCO3', 'CC50 at 48 h', '> 12.5 µM');

Quick one: give measured CC50 at 48 h for "O=C(O)c1cc2ccc3c(c2c(-c2ccc4c(c2)OCO4)c1CO)OCO3" > 12.5 µM
